- target or test system: SENP1
- method notes: pooled miR-30 sensor sort-seq; sequence = guide strand
- condition set: shRNA
result type: sensor-assay potency score (higher = more potent)
Write no unit; give the number alone.

State measured sensor-assay potency score (higher = more potent) of the sequence `TAATAGGTAATATTCTTCTTTC` with SENP1.
-0.79

Under SENP1, report sensor-assay potency score (higher = more potent) for `TATTGCAAGAGTATTCTGCAGG`
-0.448

Report the value of sensor-assay potency score (higher = more potent) obtained on SENP1 for `TTGATTGGTCTGTCTTTGGTAA` .
-0.497

Report its sensor-assay potency score (higher = more potent) with SENP1 as the test system: `TTATCTGAGTAATAGCTTGGAT`
0.0199

Write down measured sensor-assay potency score (higher = more potent) (SENP1) for this sequence. `TGTACTAACATGTCGCCTCTGA`
0.2

Provide the reported sensor-assay potency score (higher = more potent) (system: SENP1) for `AACAGTAACAGGAATCTCCTTT`
-0.105

----------
- target or test system: FER1L6
- method notes: pooled miR-30 sensor sort-seq; sequence = guide strand
- condition set: shRNA
Please provide measured sensor-assay potency score (higher = more potent) for the entries that follow.
Number, no unit, nothing else.

Determine its reported sensor-assay potency score (higher = more potent): `TAAAATGACATCTTCAGTGTTC`
0.481

Consider the sequence `TTAGTCAACAGTTTTGATCTTC` . State its measured sensor-assay potency score (higher = more potent).
0.643

Find the measured sensor-assay potency score (higher = more potent) of `TTTTTCTGGTACAATCTCCGGG` and report it.
0.00268

Please report the measured sensor-assay potency score (higher = more potent) for `TAACTTTTTCTTCTGCTGCTGA`
0.239

Give the measured sensor-assay potency score (higher = more potent) for `TTGACTATCTTTCGCAGCCTTG`
-0.891

Could you please provide reported sensor-assay potency score (higher = more potent) for `TTCTTCTGCTGTAACTAGGTGG` ? Thanks!
-0.362

Report sensor-assay potency score (higher = more potent), nothing else, for this sequence: `TTCTTCTATACTTTCTTCCAGG`
-0.684

# return recorded sensor-assay potency score (higher = more potent) for entry `TTTTCTGGTACAATCTCCGGGG`
0.181

----------
- target or test system: TDRD10
- method notes: pooled miR-30 sensor sort-seq; sequence = guide strand
- condition set: shRNA
Respond with T for sensor-assay potency score (higher = more potent) values of -0.8 and above, F for values below.

Quick check: does `TTCACGAACAGTTTTCGCTTGT` have sensor-assay potency score (higher = more potent) greater than or equal to -0.8?
T

Determine whether measured sensor-assay potency score (higher = more potent) meets or exceeds -0.8 for `TTTTGTGGACATCAAGAGGGTT`
T

Reported sensor-assay potency score (higher = more potent) at or above -0.8? `TTTGCTTGTATTCACGAACAGT`
F

Does `AAGTCGTCGCTGTCTAGGCTGC` have a reported sensor-assay potency score (higher = more potent) of at least -0.8?
T

Could you tell me if the measured sensor-assay potency score (higher = more potent) of `TTTGTGGACATCAAGAGGGTTG` reaches -0.8 or more?
T

----------
Provide the recorded sensor-assay potency score (higher = more potent) for the entries that follow.
- target or test system: ATP2C2
- method notes: pooled miR-30 sensor sort-seq; sequence = guide strand
- condition set: shRNA
Form: value (number only, do not type unit).

Fill in reported sensor-assay potency score (higher = more potent) for this entry: `TTCTGCTCTGAACTGAATGGAA`
-0.474

Find the measured sensor-assay potency score (higher = more potent) of `TTGTGCTTTGGGCTGGTCCTGA` and report it.
-0.105

Look up and state reported sensor-assay potency score (higher = more potent) for `TAGAGGAACATGTGGTTCCTGA`
-0.803

Supply sensor-assay potency score (higher = more potent) value. Item: `TTTAATATCACTTAAGTCCATC`
-0.736

Provide only the value of recorded sensor-assay potency score (higher = more potent) for `TCATCTTAAACACTTCTCCGAA`
-0.15

Fill in reported sensor-assay potency score (higher = more potent) for this entry: `TTGTACATGGTGCAGTAGCGGA`
-1.45

Give the value of sensor-assay potency score (higher = more potent) reported for the following: `TACGACATCACCAGGAACCAGT`
-0.544

----------
- target or test system: MED28
- method notes: pooled miR-30 sensor sort-seq; sequence = guide strand
- condition set: shRNA
Outcome label depends on sensor-assay potency score (higher = more potent) relative to -0.1: at/above gives satisfied, below gives not satisfied.

Decide: is the reported value of sensor-assay potency score (higher = more potent) for `TCGAATTTCTTCCTGATCGGTG` equal to or greater than -0.1?
not satisfied

Test whether the sequence `TTTGTAAGAAAAAACATTCTGT` records sensor-assay potency score (higher = more potent) of -0.1 or higher.
satisfied

Check if sensor-assay potency score (higher = more potent) >= -0.1 (inclusive). Item: `TTCCGCTGTAATTCATTCCTTA`
satisfied

Threshold query (sensor-assay potency score (higher = more potent) >= -0.1) on `TTAGTTCTGACACATCCTCTTT`
not satisfied

Decide: sensor-assay potency score (higher = more potent) of `TCGTCCACCAAAGTACTGCTGG` >= -0.1?
not satisfied

----------
- target or test system: DNAJC13
- method notes: pooled miR-30 sensor sort-seq; sequence = guide strand
- condition set: shRNA
I would appreciate it if you labelled entries satisfied when sensor-assay potency score (higher = more potent) is 0.6 or higher, otherwise not satisfied.

Reported sensor-assay potency score (higher = more potent) at or above 0.6? `TTCAATTACATTGCTTTGCAGT`
not satisfied

Does sensor-assay potency score (higher = more potent) meet or surpass 0.6 for `TATCTTTCAGTTCTTCTCGTGT` ?
not satisfied

Does the sequence `TTGTGCTACTAATTCACTCTGC` have recorded sensor-assay potency score (higher = more potent) that is 0.6 or more?
satisfied

Answer whether sensor-assay potency score (higher = more potent) of `TAGACCAACAGTATCTGCTCGC` is greater than or equal to 0.6.
not satisfied

Threshold query (sensor-assay potency score (higher = more potent) >= 0.6) on `TTGAATTGCAGAACATATCCAG`
satisfied

Identify whether the reported sensor-assay potency score (higher = more potent) of the following sequence is 0.6 or greater: `TTGTTGTGTAGAAACATGCCAG`
not satisfied

----------
I'd appreciate it if you could supply sensor-assay potency score (higher = more potent) values for the items below.
- target or test system: TRIM25
- method notes: pooled miR-30 sensor sort-seq; sequence = guide strand
- condition set: shRNA
Answer using only a numeral; do not append any unit.

Input `TATAGCACTCTGACAGAGCCAC` , output reported sensor-assay potency score (higher = more potent).
-0.415

Please supply the value of reported sensor-assay potency score (higher = more potent) for the item `TTTAATGTAATACTCCAGGAGC`
-0.733

Respond only with sensor-assay potency score (higher = more potent) recorded for `TTGTTTTAAATCCACTAACTGT`
-0.521

Indicate its recorded sensor-assay potency score (higher = more potent); the sequence in question is `TTGAGGTCTATGGTGCTCTGGT`
-0.448

Fill in sensor-assay potency score (higher = more potent) for record `TTGTGCTGGGAACATTTGCGGC`
-1.66

State its sensor-assay potency score (higher = more potent) for this sequence: `TTTATCTTCCTTGTCGAGGTGG`
0.408

----------
- target or test system: HLA-DMA
- method notes: pooled miR-30 sensor sort-seq; sequence = guide strand
- condition set: shRNA
result type: sensor-assay potency score (higher = more potent)
Respond numerically, and do not add a unit to the figure.

Please list sensor-assay potency score (higher = more potent) recorded for the sequence `TTCACTGTCAGCATGGGTGGGA`
0.0511

Specify measured sensor-assay potency score (higher = more potent) for `TGCTGGATCATCCACTCGCAGA` .
-1.77

Tell me sensor-assay potency score (higher = more potent) reported for `TCAGCGTGAACACTTCAGCGAT`
-1.13

Annotate the sequence `TCGTGAGTCACAATGCAGGAGA` with its measured sensor-assay potency score (higher = more potent).
-0.908

Respond only with sensor-assay potency score (higher = more potent) recorded for `TTCGTGAGTCACAATGCAGGAG`
0.512

Return reported sensor-assay potency score (higher = more potent). Input sequence: `TGTGTAGCGGTCAATTTCGTGA`
-0.684

Please supply the value of reported sensor-assay potency score (higher = more potent) for the item `ATTTCGTGAGTCACAATGCAGG`
-1.4

Return sensor-assay potency score (higher = more potent) for the following sequence: `TTGGAGTAGGAGCTTCAGGGAC`
-1.01

Answer with reported sensor-assay potency score (higher = more potent) of `TTACTGACAAAACAGACCAAAG`
-1.69

----------
- target or test system: OMD
- method notes: pooled miR-30 sensor sort-seq; sequence = guide strand
- condition set: shRNA
Outcome: condition met for sensor-assay potency score (higher = more potent) of at least -0.3; condition not met for anything lower.

API: above_or_equal(metric=sensor-assay potency score (higher = more potent), cutoff=-0.3) for item `TTAAATTCAATTCTGATCTTAT`
condition met

Threshold query (sensor-assay potency score (higher = more potent) >= -0.3) on `TATAGGTTTTGTGAAGTCGTAA`
condition not met

Tell me whether sensor-assay potency score (higher = more potent) is at least -0.3 here: `TTGTGTGACATTCTTAGAGTAT`
condition not met

Evaluate `TTCATTGTAACCAAGAAGGAGT` : sensor-assay potency score (higher = more potent) at minimum -0.3?
condition met

Exam item: decide whether the reported sensor-assay potency score (higher = more potent) for `TTTGTCGAAGTATTTTTCGGGT` is at least -0.3.
condition met

The measured values listed here are drawn from the OligoGym collection.
